# Measurement protocol: Metabolic stability in baboon after 13 mins
# Format: ADME, organism-based, Papio
# Measurement parameters: in vivo, read-out: Stability
Assay metric: remaining at 13 min

Fill in: remaining at 13 min of COCCN(CCO[11CH3])c1cc(C)nc2c(-c3ccc(N(C)C)nc3)c(C)nn12 [[11C]DMP696] is ___
50%

====

# Measurement protocol: Metabolic stability in baboon after 9 mins
# Type: ADME, organism-based, Papio
# Measurement parameters: in vivo, read-out: Stability
Assay metric: remaining at 0.15 h (%)
Please respond with the number in % and leave the unit unwritten.

Find the recorded remaining at 0.15 h belonging to "CCCN(CCC)c1cc(C)nc2c(-c3ccc(N(C)[11CH3])nc3)c(C)nn12" and report it.
50

====

Listing of recorded logD by entry.
# Measurement protocol: Lipophilicity, log D of the compound in octanol-phosphate buffer at pH 7.4 after 30 to 40 mins by shake flask method
# Format: physicochemical
Quick one: just the number, no unit, thanks!

Reference set, count: 5
{"columns": ["Compound", "Recorded result"],
 "data": [
  ["Cc1cc(C#N)cc(C)c1Nc1nc(Cl)cn([C@@H](COCCF)C2CC2)c1=O", 3.4],
  ["COc1nc(C)c(Nc2nc(C)cn([C@@H](CF)C3CC3)c2=O)cc1C", 4.1],
  ["N#Cc1cc(F)c(Nc2nc(Cl)cn([C@@H](COCCF)C3CC3)c2=O)cc1F", 4.6],
  ["COc1cc(C)c(Nc2nc(Cl)cn([C@@H](COCCF)C3CC3)c2=O)cc1C", 4.6],
  ["COc1cc(Cl)c(Nc2nc(Br)cn([C@@H](COCCF)C3CC3)c2=O)c(Cl)c1", 4.1]
]}

What value of logD has been recorded for this entry: "COc1cc(Cl)c(Nc2nc(C#N)cn([C@@H](COCCF)C3CC3)c2=O)c(Cl)c1"
3.4

Dear colleague, I am looking for the recorded logD of the following compound: COc1nc(C)c(Nc2nc(Cl)cn(C(CCF)C3CC3)c2=O)c(OC)n1 (racemic)
2.9

So what does the record say about logD for "COc1nc(Cl)nc(C)c1Nc1nc(Br)cn([C@@H](COCCF)C2CC2)c1=O" ?
3.4

// logD lookup, key: "COc1cc(C)c(Nc2nc(C)cn([C@@H](CF)C3CC3)c2=O)cc1C"
4.2

// returns reported logD for input "Cc1cc(C#N)cc(Cl)c1Nc1nc(Cl)cn([C@@H](COCCF)C2CC2)c1=O"
3.7

Need logD of "COc1cc(C)c(Nc2nc(Cl)cn([C@@H](CF)C3CC3)c2=O)cc1C" , thanks.
4.5

// query logD value for entry "N#Cc1cc(Cl)c(Nc2nc(Cl)cn([C@@H](COCCF)C3CC3)c2=O)c(Cl)c1"
3.6

Suppose we examine the compound "COc1cc(Cl)c2c(c1)CCN2c1nc(Cl)cn([C@@H](COCCF)C2CC2)c1=O" ; what logD value has been reported?
4

Please give the measured logD for this compound: "COc1nc(Cl)nc(C)c1Nc1nc(Cl)cn([C@@H](COCCF)C2CC2)c1=O"
3.3

// returns reported logD for input "COc1cc(Cl)c(Nc2nc(Cl)cn([C@@H](COCCF)C3CC3)c2=O)c(Cl)c1"
4

====

pIC50 reference
# System under test: Corticotropin-releasing factor receptor 1 (Rattus norvegicus)
# Sequence (P35353 whole entry): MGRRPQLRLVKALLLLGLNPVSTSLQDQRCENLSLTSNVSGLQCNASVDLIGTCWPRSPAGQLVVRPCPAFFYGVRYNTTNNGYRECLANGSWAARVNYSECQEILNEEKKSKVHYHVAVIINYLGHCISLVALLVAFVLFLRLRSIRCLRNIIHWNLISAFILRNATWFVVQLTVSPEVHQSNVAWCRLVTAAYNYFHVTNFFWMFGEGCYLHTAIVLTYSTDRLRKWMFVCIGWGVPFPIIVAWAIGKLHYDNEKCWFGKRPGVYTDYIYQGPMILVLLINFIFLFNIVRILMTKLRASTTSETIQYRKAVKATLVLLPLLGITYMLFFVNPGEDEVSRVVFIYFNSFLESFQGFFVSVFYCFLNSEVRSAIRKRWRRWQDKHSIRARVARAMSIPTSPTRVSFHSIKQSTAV
# Measurement protocol: Displacement of [125I]-o-CRF from CRF1 receptor in rat frontal cortex homogenate after 2 hrs by gamma counting
# Type: tissue-based
Conceptually, pIC50 converts a concentration in mol/L into minus its log10.

{"columns": ["Molecule", "System under test", "pIC50"],
 "data": [
  ["COc1nc(Cl)nc(C)c1Nc1nc(Br)cn([C@@H](COCCF)C2CC2)c1=O", "Corticotropin-releasing factor receptor 1 (Rattus norvegicus)", 7.85],
  ["COc1nc(C)c(Nc2nc(Cl)cn(C(CCF)C3CC3)c2=O)c(OC)n1 (racemic)", "Corticotropin-releasing factor receptor 1 (Rattus norvegicus)", 7.28],
  ["COc1cc(Cl)c(Nc2nc(Br)cn([C@@H](COCCF)C3CC3)c2=O)c(Cl)c1", "Corticotropin-releasing factor receptor 1 (Rattus norvegicus)", 9.34]
]}

Tell me the measured pIC50 of "COc1nc(C)c(Nc2nc(C)cn([C@@H](CF)C3CC3)c2=O)cc1C" , please.
8.33

For the molecule "N#Cc1cc(Cl)c(Nc2nc(Cl)cn([C@@H](COCCF)C3CC3)c2=O)c(Cl)c1" , what pIC50 is on record?
8.30

# input molecule: "Cc1cc(C#N)cc(Cl)c1Nc1nc(Cl)cn([C@@H](COCCF)C2CC2)c1=O" ; wanted: its pIC50
8.35

Query: pIC50; subject: "COc1nc(Cl)nc(C)c1Nc1nc(Cl)cn([C@@H](COCCF)C2CC2)c1=O"
7.72
